- System Under Test: D93, recombinant humanized IgG1 kappa antibody targeting denatured-collagen
- Protocol Text: competition ELISA on coated human dn-collagen IV
Square brackets hold non-standard residues; d marks the D form. Ends that are not written are not given here. Hyp = O=C(O)[C@@H]1C[C@@H](O)CN1
Parameter: % inhibition of D93 binding to dn-collagen IV, peptide 10 µM (%)

{"Binder": "L[Hyp]GF[Hyp]G [synthetic peptide No. 19, LPGFPG (SEQ ID NO: 23)]", "Readout Units": "%", "Recorded Result": 6}
{"Binder": "GPPGPPG (also: hydroxyproline at marked P positions, if any, marking lost) [synthetic peptide No. 23, GPPGPPG (SEQ ID NO: 33)]", "Readout Units": "%", "Recorded Result": 4.5}
{"Binder": "L[Hyp]GL[Hyp]G [synthetic peptide No. 14, LPGLPG (SEQ ID NO: 25)]", "Readout Units": "%", "Recorded Result": 6.5}
{"Binder": "F[Hyp]GP[Hyp]GPDGL[Hyp]GSMGP[Hyp]G [synthetic peptide No. 7, … (SEQ ID NO: 36)]", "Readout Units": "%", "Recorded Result": 43}
{"Binder": "LPGP[Hyp]GP[Hyp]GP [synthetic peptide No. 5, … (SEQ ID NO: 20)]", "Readout Units": "%", "Recorded Result": 41.5}
{"Binder": "GPXGPXG (contains hydroxyproline ('where P is hydroxyproline'); positions marked in the tables but lost in this text) [synthetic peptide No. 15, GPPGPPG (SEQ ID NO: 32)]", "Readout Units": "%", "Recorded Result": 17}
